Known melting point of a selection of compounds

Record excerpt, results attached:
compound: [N-]=[N+]=NS(=O)(=O)c1ccc(C(=O)Cl)cc1
measured-value: 68 °C

compound: O=C1Cc2c(OCCN3CCc4ccccc4C3)ccc(F)c2N1
measured-value: 230 to 235 °C

compound: Cc1c([N+](=O)[O-])ccc2[nH]cc(CCCO)c12
measured-value: 129 to 130 °C

compound: CCOC(=O)c1cn(C2CC2)c2occc2c1=O
measured-value: 200 to 201 °C

Given item COc1ccc2ncc3c(c2c1)C(OC(C)=O)CCC3 (stereo unspecified) , the value recorded as its melting point is 116 to 117 °C

Given item Cc1cc(C#N)cc(C(=O)c2[nH]c(=O)[nH]c(=O)c2C(C)(C)C)c1 , the value recorded as its melting point is 270 to 271 °C

----------
parameter: melting point

molecule: CSCc1cnc2c(NC(=O)c3c(Cl)cccc3Cl)cccc2c1Cl
measured-value: 173 to 175 °C

molecule: CC1(C)Oc2ccc(C#N)cc2C(n2ccccc2=O)C1O (stereo not given)
measured-value: 243 °C

molecule: CCC(=C[N+](=O)[O-])NCc1ccc(Cl)nc1
measured-value: 95 to 98 °C

molecule: COc1ccc(C(=O)Nc2c(Cl)cncc2Cl)nc1OC1CCCC1
measured-value: 164 to 166 °C

Given item CC(C)Oc1ccc(CCCOc2nn(Cc3ccccc3)cc2CC(=O)O)c(Oc2ncc(C(F)(F)F)cc2Cl)c1 , the value recorded as its melting point is 115 to 116 °C

----------
Known melting point of a selection of molecules

molecule: O=C(Cc1ccncc1)NC1CCCCC1
melting point: 147 to 148 °C

molecule: CCOCc1nc2c(N)nc3ccccc3c2s1
melting point: 149 to 151 °C

molecule: CC(C)(C)OC(=O)COc1coc(CN2CCCC2)cc1=O
melting point: 93 to 94 °C

molecule: Nc1cccc(S(=O)(=O)NCc2ccccn2)c1
melting point: 124 °C

molecule: Cc1sc2ccccc2c1C=O
melting point: 95 to 96 °C

Given item O=C(O)C(Cc1ccccc1)Oc1ccc2cc(-c3cnc(Cc4ccccc4)o3)ccc2c1 (stereo unspecified) , the value recorded as its melting point is 78 to 82 °C

----------
parameter: melting point

Record excerpt, results attached:
molecule: CC(=NNc1ccc(C2=NNC(=O)CC2C)cc1)c1ccncc1 (stereo unspecified)
measured-value: 246 to 248 °C
--
molecule: NC(=O)NCc1ccc(-c2ccc3oc([N+](=O)[O-])c(-c4ccccc4)c3c2)cc1
measured-value: 215 to 216 °C
--
molecule: COC(=O)c1cccc(-c2cnc3c(c2)N(Cc2ccccc2)C(=O)CN3)c1
measured-value: 211 °C
--
molecule: COc1c(Cl)cc(Cl)c(OC)c1C(=O)O
measured-value: 98 to 100 °C
--
molecule: O=c1[nH]cnc2cccnc12
measured-value: 343 to 345 °C

Given item CCCc1nc2c(N)nc3cc(OCCN4CCCC4)ccc3c2s1 , the value recorded as its melting point is 124 to 127 °C

Given item NC(=O)COc1ccccc1C(=O)Nc1ccc(C(=O)N2CCCCc3ccccc32)cc1 , the value recorded as its melting point is 198 to 199 °C

Given item Brc1cc(C=Cc2scc3c2OCCO3)ccn1 , the value recorded as its melting point is 127 to 129 °C
